For each record, write down the corresponding TGI.
tested on: KM20L2 colon; test: NCI tumour cell line growth inhibition, 48 h

Q) Given the entry O=C(O)c1cccc2cccc(C(=O)O)c12.[Hg] , report its measured TGI.
A) > 100 µM

Q) Given the entry COC(=O)C(Cc1ccccc1)NC(=O)Cn1ccnc1[N+](=O)[O-] (stereo not drawn) , report its measured TGI.
A) > 100 µM

Q) Given the entry CC1=NC(C(C)C)C(=O)O1 (stereo not drawn) , report its measured TGI.
A) > 100 µM

* * *

For each record, write down the corresponding GI50.
system: HT29 colon; assay: NCI tumour cell line growth inhibition, 48 h

Q) Given the entry O=C(O)c1cccc2cccc(C(=O)O)c12.[Hg] , report its measured GI50.
A) 13800 nM

Q) Given the entry O=C1CC[C@H](c2ccc(O)c3c2C(=O)[C@@H]2O[C@@H]2C3=O)c2cccc(O)c21 , report its measured GI50.
A) 2330 nM

Q) Given the entry Cc1c(-c2nnc(-c3ccc(F)cc3)o2)nnn1-c1ccnc2c(C(F)(F)F)cccc12 , report its measured GI50.
A) 34400 nM

Q) Given the entry Cn1ccnc1C(=O)/C=C/c1ccc(CC(=O)Nc2ccc(F)cc2)cc1 , report its measured GI50.
A) 2270 nM

Q) Given the entry COc1ccc(-c2nn(-c3cccc(NC(=O)c4cccc(C(F)(F)F)c4)c3)cc2-c2ccncc2)cc1Cl , report its measured GI50.
A) 2920 nM

Q) Given the entry O=C1CCC(N2Cc3c(C#CCCCNC(=O)c4cc5c(o4)C(=O)c4ccccc4C5=O)cccc3C2=O)C(=O)N1 (centres undefined) , report its measured GI50.
A) 5920 nM

Q) Given the entry CC1OC(n2c3ccccc3c3c4c(c5c6ccccc6[nH]c5c32)C(=O)N(CCN2CCOCC2)C4=O)CC(O)C1O (centres undefined) , report its measured GI50.
A) 1920 nM

Q) Given the entry O=C(CN1C(=O)S/C(=C\C(Cl)=C\c2ccccc2)C1=O)NCCc1ccc(O)cc1 , report its measured GI50.
A) 3020 nM

Q) Given the entry Cc1nn(-c2ccccc2)c2nc3c(nc12)C1=NCCN1C(c1ccc(Cl)cc1)N3 (centres undefined) , report its measured GI50.
A) 2500 nM

Cited source: PubChem BioAssay (NCI)
